- Test system: HCC1569;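 note: TDF denotes transformed human dermal fibroblasts of mesenchymal origin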
- experiment: cell number relative to DMSO (% of DMSO); higher = more cells (less growth inhibition / toxicity)
- conditionInfo: concentration: 10 µM; 24 h
Assign class by cell number: not lower than 100 means Fulfilled; lower than 100 means Not fulfilled.

Before answering, review these 5 worked examples.
compound: O=C(OC12CC3CC(CC(C3)C1)C2)c1ccc(NCc2cc(O)ccc2O)cc1 [1-adamantyl 4-[(2,5-dihydroxybenzyl)amino]benzoate]
class: Not fulfilled
--
compound: N[C@H](C(=O)O)c1cccc(O)c1 [(S)-3-Hydroxyphenylglycine]
class: Not fulfilled
--
compound: CC12CCC3c4ccc(O)cc4CCC3C1CCC2O (configuration not stated) [Estradiol]
class: Not fulfilled
--
compound: CCC(C(=O)C(C)C(O)C(C)CCc1ccc(C)c(O)c1C(=O)[O-])C1OC(CC)(C2CCC(O)(CC)C(C)O2)CC1C.[Na+] (configuration not stated)
class: Not fulfilled
--
compound: CCCCCC=CC=CC(O)CCCCCCCC(=O)O (configuration not stated)
class: Fulfilled

// next entry
Req: Check if cell number >= 100 (inclusive). Item: "CC1=C(CC(=O)O)c2cc(F)ccc2C1=Cc1ccc(S(C)(=O)=O)cc1"
Resp: Fulfilled
